# Tested on: 7G8
# procedure_text: qHTS profiling for inhibitors of Plasmodium falciparum proliferation (AID 504749); note: nearly all actives have a fitted effect of over 60% in size
# condition_parameters: P. falciparum in erythrocytes, SYBR Green DNA, 72 h; series mostly up to 28.7 µM
Results filed as inconclusive are left out. The source made the active and inactive calls. Calls come from the whole dose curve; as a rule, active = well fitted inhibition curve with a large enough effect; inconclusive = small, poorly fitted or top-dose-only effect; inactive = flat fitted curve, though single readings scatter.
Parameter call: string, one of true (1) for active, false (0) for inactive

Returns: the outcome recorded for CCC/C=C/C=C/C(=O)OC1/C(=C/C(=O)OC)CC2CC(C(C)O)OC(=O)CC(O)CC3CC(OC(C)=O)C(C)(C)C(O)(CC4C/C(=C/C(=O)OC)CC(/C=C\C(C)(C)C1(O)O2)O4)O3 (centres undefined) in this assay.
true (1)

I'd appreciate the recorded outcome for OC[C@@H](O)[C@H]1O[C@@H]2OC(C(Cl)(Cl)Cl)O[C@H]2[C@H]1O (some centres undefined) from this test.
false (0)

Look up the recorded call for `CCN(CC)C(=O)N[C@@H]1C=C2c3cccc4[nH]cc(c34)C[C@H]2N(C)C1` in this test.
true (1)

Hello, I am checking results. What call was entered for `C=C1Nc2ccccc2C(=O)N1c1ccccc1C` ?
false (0)

Lab log entry: CC1CC[C@@]2(NC1)OC1CC3C4CC[C@@H]5CC(O)CC[C@@]5(C)C4CC[C@]3(C)C1C2C (some centres undefined) — outcome as called in the assay?
true (1)

Dear all, I need the recorded test outcome for Cc1cc(C)cc(C(=O)OC2CC3CCC(C2)N3C)c1 (centres undefined) , thank you.
true (1)

Recorded test call requested for O=[N+]([O-])OC1CO[C@H]2C(O[N+](=O)[O-])COC12 (some centres undefined)
false (0)

Please share the test call associated with C[C@]12C=CC(=O)C=C1CC[C@@H]1C2CC[C@]2(C)OC(=O)CCC12 (some centres undefined) .
false (0)

What did the test return for COC(=O)C1C(OC(=O)c2ccccc2)CC2CCC1N2C (centres undefined) ?
false (0)
